TARGET: unphosphorylated-BTK kinase domain (UP-BTK), GST-tagged human BTK (389-659aa) (Homo sapiens (Human))
ASSAY_EXPLANATION: BTK kinase Lanthascreen binding assay
TEST_CONTEXT: unphosphorylated-BTK kinase domain, 50 nM Tracer 236, 60 minutes; pIC50 = negative log of the IC50 in molar
BTK_I_binding pIC50 values by entry

# COMPOUND, VALUE_OPERATOR, BTK_I_binding pIC50
data = [
    ("C=CC(=O)N1CCC[C@@H](NC(=O)c2sc3nccc4c3c2NC(=O)N4c2cccc(C(C)C)c2)C1", "=", 7.6),
    ("Cc1cc(Oc2ccncc2)ccc1N1C(=O)Nc2c(C(=O)N[C@@H]3CCCN(C)C3)sc3nccc1c23", "<", 5),
    ("O=C(NCC1CCNC1)c1sc2nccc3c2c1NC(=O)N3c1ccc(Oc2ccccc2)cc1 (stereo not drawn)", "=", 6.4),
    ("C=CC(=O)N1CCC[C@@H](NC(=O)c2sc3nccc4c3c2NC(=O)N4c2cccc(-c3cccc(C)c3)c2)C1", "=", 7.5),
    ("CNCC(=O)N1CCC[C@@H](NC(=O)c2sc3nccc4c3c2NC(=O)N4c2ccc(Oc3ccccc3)c(Cl)c2)C1", "=", 7.3),
    ("CC(C)=C(Cl)C(=O)N1CCC[C@@H](NC(=O)c2sc3nccc4c3c2NC(=O)N4c2ccc(Oc3ccccc3)cc2C)C1 (single isomer, unassigned) [Example 438]", "=", 6.7),
    ("COC[C@@H](C)C(=O)N1CCC[C@@H](NC(=O)c2sc3nccc4c3c2NC(=O)N4c2ccc(Oc3ccccc3)cc2C)C1", "=", 7.0),
    ("C=CC(=O)N1CCC[C@@H](NC(=O)c2sc3nccc4c3c2NC(=O)N4c2ccc(Cl)c(C(F)(F)F)c2)C1", "=", 5.4),
    ("CN[C@@H](C)C(=O)N1CCC[C@@H](NC(=O)c2sc3nccc4c3c2NC(=O)N4c2ccc(Oc3ccccc3)cc2C)C1 (single isomer, unassigned)", "=", 7.8),
    ("COc1ccc(N2C(=O)Nc3c(C(=O)N[C@@H]4CCCNC4)sc4nccc2c34)cc1C(F)(F)F", "<", 5),
    ("O=C(N[C@@H]1CCCNC1)c1sc2nccc3c2c1NC(=O)N3c1ccc2ccccc2c1", "<", 5),
    ("Cc1cc(Oc2ccccc2)ccc1N1C(=O)Nc2c(C(=O)N[C@@H]3CCCN(C(=O)/C=C/CN(C)C)C3)sc3nccc1c23 [Example 371]", "=", 7.0),
    ("C=CC(=O)N1CCC[C@@H](NC(=O)c2sc3nccc4c3c2NC(=O)N4c2cccc(-c3cccnc3)c2)C1", "=", 7.0),
    ("CO[C@H]1CNC[C@@H]1NC(=O)c1sc2nccc3c2c1NC(=O)N3c1ccc(Oc2ccccc2)cc1", "=", 6.4),
    ("Cc1cc(Oc2ccccc2)ccc1N1C(=O)Nc2c(C(=O)NCCN3CCOC[C@@H]3C)sc3nccc1c23", "=", 6.1),
]

====

TARGET: unphosphorylated-BTK kinase domain (UP-BTK), GST-tagged human BTK (389-659aa) (Homo sapiens (Human), UniProt Q06187)
Sequence (Q06187 389-659): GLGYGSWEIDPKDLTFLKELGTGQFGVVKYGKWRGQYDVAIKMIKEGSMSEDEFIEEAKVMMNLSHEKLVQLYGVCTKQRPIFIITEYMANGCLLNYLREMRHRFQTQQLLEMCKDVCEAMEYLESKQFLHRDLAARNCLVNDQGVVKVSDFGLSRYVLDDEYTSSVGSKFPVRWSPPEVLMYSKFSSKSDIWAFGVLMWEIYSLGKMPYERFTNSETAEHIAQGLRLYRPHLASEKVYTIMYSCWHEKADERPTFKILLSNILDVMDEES
ASSAY_EXPLANATION: BTK kinase Lanthascreen binding assay
TEST_CONTEXT: Lanthascreen tracer competition, 60 minutes incubation; pIC50 = negative log of the IC50 in molar; read-out: BTK_I_binding pIC50 (converted)
log10(IC50) values by entry
PROPERTY_NAME: log10(IC50) (log10 of the value in nM)

# MOLECULE, log10(IC50)
data = [
    ("Cc1cc(Oc2ccccc2)ccc1N1C(=O)Nc2c(NC(=O)C3CCCN(C)C3)sc3nccc1c23 (stereo not shown) [Example 823]", 3.50),
    ("Cc1cc(Oc2ccccc2)ccc1N1C(=O)Nc2c(NC(=O)C3CCCN(C(=O)/C(C#N)=C/C(C)(C)C)C3)sc3nccc1c23 (stereo not shown) [Example 816]", 3.00),
    ("O=C(N[C@@H]1CCCNC1)c1sc2nccc3c2c1NC(=O)N3c1ncc(Oc2ccccc2)cn1 [Example 719]", 2.70),
    ("C=CC(=O)N1CC(NC(=O)c2sc3nccc4c3c2NC(=O)N4c2ccc(Oc3ccccc3)cc2)C[C@@H](O)C1 (stereo in doubt) [Example 589]", 0.90),
    ("Cc1cc(Oc2ccccc2)ccc1N1C(=O)Nc2c(C(=O)N[C@@H]3CCCN(C#N)C3)sc3nccc1c23 [Example 852]", 1.50),
]
